# TEST SYSTEM: BRS3 (Homo sapiens, UniProt P32247)
# Construct: purchased Promega (in-house HiBiT-GPCR construct library, NanoBRET)
# Sequence (P32247 whole entry): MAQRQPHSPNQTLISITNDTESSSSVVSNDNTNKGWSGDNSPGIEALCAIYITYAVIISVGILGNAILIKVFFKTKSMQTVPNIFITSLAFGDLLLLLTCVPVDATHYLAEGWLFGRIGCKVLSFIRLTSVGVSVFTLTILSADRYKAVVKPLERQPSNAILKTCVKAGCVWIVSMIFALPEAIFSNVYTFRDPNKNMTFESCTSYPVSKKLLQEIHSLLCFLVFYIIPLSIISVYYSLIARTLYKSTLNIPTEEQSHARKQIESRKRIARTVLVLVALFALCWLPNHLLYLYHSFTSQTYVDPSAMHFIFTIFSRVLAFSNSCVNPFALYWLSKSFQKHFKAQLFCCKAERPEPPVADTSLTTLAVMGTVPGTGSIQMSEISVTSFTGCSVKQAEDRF
# TEST METHOD NOTES: NanoBRET screen HiBiT-BRS3 in HEK293
# Format: binding
# CONDITION: BRS3; tracer 1μM
Readings of NanoBRET Fold Response for the listed molecules
ENDPOINT: NanoBRET Fold Response

>>> numeric_result("O=C(CCc1ccc2n1[B-](F)(F)[N+]1=C(c3ccc[nH]3)C=CC1=C2)NCCOCCOCCNC(=O)OCCOCCN1CCN(C2=Nc3ccccc3Sc3ccccc32)CC1")
0.98
>>> numeric_result("COc1ccccc1N1CCN(CCCCN2C(=O)c3ccc(CNC(=O)CCOCCNC(=O)c4ccc(CNC(=O)CCc5ccc6n5[B-](F)(F)[N+]5=C(c7ccc[nH]7)C=CC5=C6)cc4)cc3C2=O)CC1")
1.02
>>> numeric_result("COc1ccccc1N1CCN(CCCCN2C(=O)c3ccc(CNC(=O)CCOCCOCCOCCOCCNC(=O)CCc4ccc5n4[B-](F)(F)[N+]4=C(c6ccc[nH]6)C=CC4=C5)cc3C2=O)CC1")
0.97
>>> numeric_result("CC(C)N(CC[C@H](c1ccccc1)c1cc(CCNC(=O)c2ccc(CNC(=O)CCc3ccc4n3[B-](F)(F)[N+]3=C(c5ccc[nH]5)C=CC3=C4)cc2)ccc1O)C(C)C")
1.09
>>> numeric_result("O=C(CCOCCOCCOCCOCCNC(=O)CCc1ccc2n1[B-](F)(F)[N+]1=C(c3ccc[nH]3)C=CC1=C2)NCCCN1CCN(C2=Nc3ccccc3Oc3ccc(Cl)cc32)CC1")
1.20
>>> numeric_result("Cc1nc2n(c(=O)c1CCN1CCC(c3noc4cc(F)ccc34)CC1)CCCC2OC(=O)NCCOCCOCCOCCOCCNC(=O)CCc1ccc2n1[B-](F)(F)[N+]1=C(c3ccc[nH]3)C=CC1=C2 (centres unmarked)")
0.98
>>> numeric_result("CCCn1c(=O)c2[nH]c(-c3ccc(OCC(=O)NCCNC(=O)CCOCCNC(=O)c4ccc(CNC(=O)CCc5ccc6n5[B-](F)(F)[N+]5=C(c7ccc[nH]7)C=CC5=C6)cc4)cc3)nc2n(CCC)c1=O")
1.04
>>> numeric_result("O=C(CCc1ccc2n1[B-](F)(F)[N+]1=C(c3ccc[nH]3)C=CC1=C2)NCc1ccc(C(=O)NCCOCCC(=O)N[C@@H]2CC[C@@]3(O)[C@H]4Cc5ccc(O)c6c5[C@@]3(CCN4CC3CC3)[C@H]2O6)cc1 [Naltrexone-3-NB590]")
0.94
